Test system: Plasmodium falciparum
Experiment: Antiplasmodial activity against Plasmodium falciparum 3D7 infected in O positive erythrocytes assessed as inhibition of parasite growth at 40 uM by FACS-based assay
Type: functional
Parameter threshold = 60%. Response is Criterion met when inhibition at 40 µM meets or exceeds it, else Criterion not met.

Use the examples below as a reference point.
CN(C)C[C@@H]1Cc2ccccc2[C@@]2(C)C[C@]3(C(=O)Nc4ccccc43)C(=O)N12: Criterion not met
CN(C)C[C@@H]1Cc2ccccc2[C@@]2(C)C[C@]3(C(=O)Nc4cc(N)ccc43)C(=O)N12: Criterion met

Query: inhibition at 40 µM >= 60% for "CCOC(=O)[C@@]1(c2ccc([N+](=O)[O-])cc2[N+](=O)[O-])C[C@]2(C)c3ccccc3C[C@@H](CN(C)C)N2C1=O" ?
Result: Criterion met
